Tested on: K98450-129-R-PDC complex spheroid growth, percent test/control;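 further: luminescence used as a proxy for viable cell amount; spheroids exposed to agents for seven days before the viability readout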
Experimental protocol: Anticancer human tumor K98450-129-R-PDC patient-derived colon adenocarcinoma cell line growth inhibition [RAS]
Applied conditions: second compound 0.003 µM; first compound 1 µM; active compounds read low
# reported viability, T/C; entries follow

| Compound | viability, T/C / % |
| --- | --- |
| NC1c2ccccc2OC12CCN(c1cnc3c(N4CCCc5ncccc54)n[nH]c3n1)CC2 (stereo not drawn) + CCn1c(-c2cc(N3CCN(C)CC3)cnc2C(C)OC)c2c3cc(ccc31)-c1csc(n1)CC(NC(=O)C1CC1C)C(=O)N1CCCC(N1)C(=O)OCC(C)(C)C2 | 5.81 |
| C=CC(=O)N1CCN(c2nc(OCC3CCCN3C)nc3c(F)c(-c4nc(N)cc(C)c4C(F)(F)F)c(Cl)cc23)C(C)C1 (stereo not drawn) + CCn1c(-c2cccnc2C(C)OC)c2c3cc(ccc31)N1CCOC(CC(NC(=O)C(C(C)C)N(C)C(=O)C3(F)CCN(C(=O)C#CC(C)(C)N(C)C)CC3)C(=O)N3CCCC(N3)C(=O)OCC(C)(C)C2)C1 | 35.2 |
| CC(C)NCC(C(=O)N1CCN(c2ncnc3c2C(C)CC3O)CC1)c1ccc(Cl)cc1 (stereo not drawn) + CCn1c(-c2cc(N3CCN(C)CC3)cnc2C(C)OC)c2c3cc(ccc31)-c1csc(n1)CC(NC(=O)C1CC1C)C(=O)N1CCCC(N1)C(=O)OCC(C)(C)C2 | 76.5 |
| CCN1CCN(Cc2ccc(Nc3ncc(F)c(-c4cc(F)c5nc(C)n(C(C)C)c5c4)n3)nc2)CC1 + CCn1c(-c2cccnc2C(C)OC)c2c3cc(ccc31)N1CCOC(CC(NC(=O)C(C(C)C)N(C)C(=O)C3(F)CCN(C(=O)C#CC(C)(C)N(C)C)CC3)C(=O)N3CCCC(N3)C(=O)OCC(C)(C)C2)C1 | 47.4 |
| CCN1CCN(Cc2ccc(Nc3ncc(F)c(-c4cc(F)c5nc(C)n(C(C)C)c5c4)n3)nc2)CC1 + CCn1c(-c2cc(N3CCN(C)CC3)cnc2C(C)OC)c2c3cc(ccc31)-c1csc(n1)CC(NC(=O)C1CC1C)C(=O)N1CCCC(N1)C(=O)OCC(C)(C)C2 | 47.6 |
| C=CC(=O)Nc1cc(Nc2nccc(-c3cn(C)c4ccccc34)n2)c(OC)cc1N(C)CCN(C)C + CCn1c(-c2cc(N3CCN(C)CC3)cnc2C(C)OC)c2c3cc(ccc31)-c1csc(n1)CC(NC(=O)C1CC1C)C(=O)N1CCCC(N1)C(=O)OCC(C)(C)C2 | 13.6 |
| CC(Nc1ccc2c(c1)OCCn1cc(N3C(=O)OCC3C(F)F)nc1-2)C(N)=O (stereo not drawn) + CCn1c(-c2cc(N3CCN(C)CC3)cnc2C(C)OC)c2c3cc(ccc31)-c1csc(n1)CC(NC(=O)C1CC1C)C(=O)N1CCCC(N1)C(=O)OCC(C)(C)C2 | 67.5 |
| C[C@@H](NC(=O)c1ncnc(N)c1Cl)c1ncc(C(=O)Nc2cc(C(F)(F)F)c(Cl)cn2)s1 + CCn1c(-c2cc(N3CCN(C)CC3)cnc2C(C)OC)c2c3cc(ccc31)-c1csc(n1)CC(NC(=O)C1CC1C)C(=O)N1CCCC(N1)C(=O)OCC(C)(C)C2 | 90.7 |
